System: VZV TK+ strain Oka
testProtocol: microbe, parasite or virus in culture
Assay type: cell-based, varicella-zoster virus
details: Human alphaherpesvirus 3, Fibroblast, read-out: EC50 VZV TK+ strain Oka
endpoint: EC50 (nM)
API: value field is a number in nM; no unit string.

Give a short answer stating reported EC50 for O=c1[nH]c(=O)n([C@H]2C[C@H](O)[C@@H](CO)O2)cc1/C=C/Br [Brivudin, reference compound] .
10
